Ref: PubChem BioAssay (NCATS)

- PROCEDURE_TEXT: Cellular viability qHTS for adrenocortical cancer (ACC) cell line SW-13 (AID 1963989);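 also: cells grown in serum-free medium with ITS supplement; % is scaled to controls: 0 for no effect and ±100 for the full control effect; nearly all actives have a fitted effect of over 65% in size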
- ASSAY_SETUP: SW-13 ACC cells viability, CellTiter-Glo, 48 h; stronger effect = lower value
Records with an inconclusive call do not appear.
METRIC_NAME: activity (max response) (%)

[[record]]
structure_string = "COc1ccc(/C=N/NC(=O)c2ccncc2)cc1OC"
unit_annotation = "%"
quantitative_result = -2.5

[[record]]
structure_string = "COc1ccc(-n2c(C)c([N+](=O)[O-])c3ccc(O)cc32)cc1"
unit_annotation = "%"
quantitative_result = 3.14

[[record]]
structure_string = "Cc1cccc(C)c1NC(=O)CN(CC(=O)O)CC(=O)O"
unit_annotation = "%"
quantitative_result = 9.48

[[record]]
structure_string = "C[C@@H]1CN(CC(=O)N2CC(C)(C)c3ncc(Cc4ccc(F)cc4)cc32)[C@@H](CN2CCOC[C@H]2C)CN1"
unit_annotation = "%"
quantitative_result = -27

[[record]]
structure_string = "O=C(O)Cc1csc(-c2ccc(Cl)cc2)n1"
unit_annotation = "%"
quantitative_result = -3.04

[[record]]
structure_string = "O=C(O)Cc1ccc2c(c1)C(=O)c1ccccc1CO2"
unit_annotation = "%"
quantitative_result = 11.3


====

- PROCEDURE_TEXT: Viability qHTS for spleen associated tyrosine kinase inhibitor (SYKi) drug resistant MV4-11 cells (AID 1963824); also: nearly all actives have a fitted effect of over 35% in size
- ASSAY_SETUP: SYKi-resistant MV4-11 viability, CellTiter-Glo, 72 h; series mostly up to 45 µM
Inconclusive results are not listed. The source made the active and inactive calls. Calls follow the shape of the dose curve; as a rule, active = well fitted cell-killing curve with a large enough effect; inconclusive = small, poorly fitted or top-dose-only effect, or effect the other way; inactive = no such curve, though single readings can be large or run the other way.
Outcome codes: active, inactive

[[record]]
molecule = "O=C(c1ccc(F)cc1)C1CCN(CCn2c(=O)nc3n(c2=O)CCCC3)CC1"
classification = "inactive"

[[record]]
molecule = "Cc1onc(-c2c(F)cccc2Cl)c1C(=O)N[C@@H]1C(=O)N2[C@@H]1SC(C)(C)[C@@H]2C(=O)O"
classification = "active"

[[record]]
molecule = "CC(=O)Oc1ccc(C)cc1"
classification = "inactive"

[[record]]
molecule = "COc1cc(O)cc(C)c1C(=O)OC1C(CO)OC(n2ccc(=O)[nH]c2=O)C1OC(C)=O (stereo not given)"
classification = "inactive"

[[record]]
molecule = "CC1(C)CC2C(C1)C(C)(O)C13CC1(COC3=O)C2O (stereo not given)"
classification = "inactive"


====

- PROCEDURE_TEXT: Quantitative highthroughput screen to assess conditional lethalithy of SEM cells grown in RPMI1640 with unreated serum (RPMI+s) (AID 1963883); also: nearly all actives have a fitted effect of over 35% in size;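 as to viability: 100% = DMSO wells and 0% = empty wells without cells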
- ASSAY_SETUP: SEM B-ALL cells, CellTiter-Glo viability, 48 h; series mostly up to 45.8 µM
Records with an inconclusive call do not appear. Activity calls are given as the source filed them. The call rests on the fitted dose curve; in most records, active means well fitted cell-killing curve with a large enough effect; inconclusive means small, poorly fitted or top-dose-only effect, or effect the other way; inactive means no such curve, though single readings can be large or run the other way. Square brackets hold non-standard residues; d marks the D form. Peptide text beside a SMILES is read from it. * marks the point of attachment. Nva = CCC[C@H](N)C(=O)O; Cbz = O=C(OCc1ccccc1)*
Outcome codes: active, inactive

[[record]]
molecule = "CCOC(=O)N1CCC(=C2c3ccc(Cl)cc3CCc3cccnc32)CC1"
classification = "inactive"

[[record]]
molecule = "O=C1CCc2ccc(OCCCCN3CCN(c4cccc(Cl)c4Cl)CC3)cc2N1"
classification = "inactive"

[[record]]
molecule = "CC(C)(C)C(=O)Oc1ccc(S(=O)(=O)Nc2ccccc2C(=O)NCC(=O)O)cc1"
classification = "inactive"

[[record]]
molecule = "O=c1[nH]cc(F)c(=O)[nH]1"
classification = "active"

[[record]]
molecule = "CCC[C@@H](C=O)NC(=O)[C@H](CC(C)C)NC(=O)[C@H](CC(C)C)NC(=O)OCc1ccccc1 (Cbz-Leu-Leu-[Nva]-aldehyde)"
classification = "active"

[[record]]
molecule = "Cn1c(N2CCCCS2(=O)=O)nc(C(=O)NCc2ccc(F)cc2)c(O)c1=O"
classification = "inactive"

[[record]]
molecule = "Nc1nc(F)nc2c1ncn2[C@@H]1O[C@H](COP(=O)(O)O)[C@@H](O)[C@H]1O"
classification = "active"

[[record]]
molecule = "Cc1cc(NC(=O)Nc2ccc(N(C)C)cc2)c2cc(F)cc(F)c2n1"
classification = "inactive"

[[record]]
molecule = "CNC1CCC(N(Cc2cccc(-c3ccncc3)c2)C(=O)c2sc3ccccc3c2Cl)CC1 (stereo not given)"
classification = "active"

[[record]]
molecule = "O=P(O)(O)C(O)(Cn1ccnc1)P(=O)(O)O"
classification = "inactive"


====

- PROCEDURE_TEXT: Viability qHTS for spleen associated tyrosine kinase inhibitor (SYKi) naive MV4-11 cells (AID 1963823); also: nearly all actives have a fitted effect of over 40% in size
- ASSAY_SETUP: MV4-11 AML viability, CellTiter-Glo luminescence, 72 h; series mostly up to 45 µM
Records with an inconclusive call do not appear. Activity calls are given as the source filed them. Calls follow the shape of the dose curve; as a rule, active = well fitted cell-killing curve with a large enough effect; inconclusive = small, poorly fitted or top-dose-only effect, or effect the other way; inactive = no such curve, though single readings can be large or run the other way.
Outcome codes: YES (active), NO (inactive)

[[record]]
compound = "CN1CCN(C(=O)c2ccc3cc(CCNc4ncnc5ccc(C#N)cc45)ccc3c2)CC1"
classification = "YES"

[[record]]
compound = "COc1cc(C(=O)OC[C@H]2O[C@H](O[C@@]3(CO)O[C@@H](CO)[C@H](O)[C@H]3O)[C@H](O)[C@@H](O)[C@@H]2O)ccc1O"
classification = "NO"

[[record]]
compound = "CCn1c(=O)c2c(nc(C=Cc3ccc(OC)c(OC)c3)n2C)n(CC)c1=O"
classification = "NO"

[[record]]
compound = "C=C[C@H]1[C@H](O[C@@H]2O[C@H](CO)[C@@H](O)[C@H](O)[C@H]2O)OC=C(C(=O)OC)[C@H]1CC(=O)O"
classification = "NO"

[[record]]
compound = "OC[C@H]1O[C@@H](OCCc2ccccc2)[C@H](O[C@@H]2OC[C@](O)(CO)[C@H]2O)[C@@H](O)[C@@H]1O"
classification = "NO"

[[record]]
compound = "CC1=CC(=O)CC(C)(C)C1/C=C/C(C)OC1OC(COC2OCC(O)C(O)C2O)C(O)C(O)C1O (stereo not given)"
classification = "NO"

[[record]]
compound = "CC/C(=C(\\c1ccc(O)cc1)c1ccc(OCCNC)cc1)c1ccccc1"
classification = "NO"

[[record]]
compound = "CC1CCN(CCCC(=O)c2ccc(F)cc2)CC1"
classification = "NO"

[[record]]
compound = "C=C1C(=O)O[C@H]2CC(=C)[C@H]3CC[C@@](C)(O)[C@@H]3CC12 (stereo not given in full)"
classification = "YES"

[[record]]
compound = "CC(=O)N1CCc2ccc(O)c(OC3OC(COC4OCC(O)(CO)C4O)C(O)C(O)C3O)c2C1Cc1ccc(O)cc1 (stereo not given)"
classification = "NO"

[[record]]
compound = "CCCCOCCOC(=O)c1cccnc1"
classification = "NO"

[[record]]
compound = "Cc1ncc(Cl)cc1NCc1ccc(C(=O)NC(CC2CCCC2)C(=O)NC2CC2)s1 (stereo not given)"
classification = "YES"

[[record]]
compound = "COc1cnc(-n2cnc(C)n2)c2[nH]cc(C(=O)C(=O)N3CCN(C(=O)c4ccccc4)CC3)c12"
classification = "NO"

[[record]]
compound = "CN(CCCOc1ccc(Cc2ccccc2)cc1)CCC(=O)O"
classification = "NO"

[[record]]
compound = "CCOc1ccc(C(Nc2ccccn2)c2ccc3ccc(C)nc3c2O)cc1C (stereo not given)"
classification = "YES"

[[record]]
compound = "C=C1C(=O)O[C@@H]2/C=C(\\CO)CC/C=C(/C=O)C[C@@H](O)[C@@H]12"
classification = "YES"

[[record]]
compound = "Cc1ccc(OCCSc2ncccn2)c(Br)c1"
classification = "NO"

[[record]]
compound = "C=CC(C)(O)CC[C@@H]1[C@@]2(C)CCCC(C)(C)C2CC[C@@]1(C)O (stereo not given in full)"
classification = "YES"

[[record]]
compound = "CN1CCCC(CC2c3ccccc3Sc3ccccc32)C1 (stereo not given)"
classification = "YES"

[[record]]
compound = "OC[C@H]1O[C@H](O[C@]2(CCl)O[C@H](CCl)[C@@H](O)[C@@H]2O)[C@H](O)[C@@H](O)[C@H]1Cl"
classification = "NO"


====

- PROCEDURE_TEXT: Quantitative highthroughput screen to assess conditional lethalithy of P12 Ichikawa cells grown in Human Plasma-Like Medium with dialyzed fetal bovine serum (HPLM+ds) (AID 1963879); also: nearly all actives have a fitted effect of over 35% in size
- ASSAY_SETUP: ATP luminescence, 48 h; viability; series mostly up to 45.8 µM
Inconclusive results are not listed. Calls of active or inactive are those of the source. The call rests on the fitted dose curve; in most records, active means well fitted cell-killing curve with a large enough effect; inconclusive means small, poorly fitted or top-dose-only effect; inactive means flat fitted curve, though single readings scatter.
Outcome codes: YES = active, NO = inactive

[[record]]
compound = "CC(C)=CCCC(C)=CCCC(C)=CCCC(C)=CCCC(C)=CCCC(C)=CCCC(C)=CCCC(C)=CCCC(C)=CCO"
classification = "NO"

[[record]]
compound = "O=C(NCc1ccccc1)c1csc(Nc2ccncn2)n1"
classification = "YES"

[[record]]
compound = "CN(C)Cc1ccc(-c2nc3cccc4c3n2CCNC4=O)cc1"
classification = "NO"

[[record]]
compound = "CCOc1cc2ncc(C#N)c(Nc3ccc(F)c(Cl)c3)c2cc1NC(=O)C=CCN(C)C"
classification = "YES"

[[record]]
compound = "CCCCC(CC)COC(=O)C(C#N)=C(c1ccccc1)c1ccccc1 (stereo not drawn)"
classification = "NO"

[[record]]
compound = "C[C@@]12O[C@@H](C[C@]1(O)CO)n1c3ccccc3c3c4c(c5c6ccccc6n2c5c31)CNC4=O"
classification = "YES"

[[record]]
compound = "CC(C)[C@H](O)C(=O)N[C@@H](C)C(=O)N[C@@H]1C(=O)N(C)CCc2ccccc21"
classification = "NO"

[[record]]
compound = "CC(COc1ccccc1)N(CCCl)Cc1ccccc1 (stereo not drawn)"
classification = "YES"

[[record]]
compound = "Cc1nc2c(-c3cnc(N)nc3)nc(N3CCOCC3)nc2n1C(C)C"
classification = "YES"

[[record]]
compound = "C[C@@H](Cc1cc2c(c(C(N)=O)c1)N(CCCO)CC2)NCCOc1ccccc1OCC(F)(F)F"
classification = "NO"

[[record]]
compound = "C[C@]1(c2nc3c(C(N)=O)cccc3[nH]2)CCCN1"
classification = "NO"

[[record]]
compound = "C[C@H](O)[C@@H]1C(=O)N2C(C(=O)O)=C(S[C@@H]3CN[C@H](CNS(N)(=O)=O)C3)[C@@H](C)[C@@H]12"
classification = "NO"

[[record]]
compound = "CCCCCOC(=O)Nc1nc(=O)n([C@@H]2O[C@H](C)[C@@H](O)C2O)cc1F (stereo partly drawn)"
classification = "NO"

[[record]]
compound = "CC=C(C)C(=O)O[C@H]1C(C)=C[C@]23C(=O)[C@@H](C=C(CO)[C@@H](O)[C@]12O)[C@H]1[C@@H](C[C@H]3C)C1(C)C"
classification = "NO"

[[record]]
compound = "CNS(=O)(=O)Cc1ccc2[nH]cc(CCN(C)C)c2c1"
classification = "NO"

[[record]]
compound = "C=C1C(=CC=C2CCC[C@]3(C)[C@@H]([C@H](C)CCCC(C)(C)O)CC[C@@H]23)C[C@@H](O)C[C@@H]1O"
classification = "NO"

[[record]]
compound = "O=C(O)C1=CO[C@@H](O[C@@H]2O[C@H](CO)[C@H](O)[C@H](O)[C@H]2O)[C@@H]2C(CO)=CC[C@H]12"
classification = "NO"

[[record]]
compound = "CC(C)[C@@H](CS(=O)(=O)C(C)C)N1C(=O)[C@@](C)(CC(=O)O)C[C@H](c2cccc(Cl)c2)[C@H]1c1ccc(Cl)cc1"
classification = "YES"

